Reported viability at 96 h, 1 µM values are given for each entry in this list.
# PROCEDURE_TEXT: In vitro cytotoxicity / potentiation of Actinomycin D in human KB epidermoid carcinoma cells, wildtype KB 3-1 (MTT)
# Type: cell-based
# TEST_CONTEXT: human, kb 3-1 cells, 1 μM potentiating agent alone, fraction of untreated cultures, read-out: Cytotoxicity, normalized absorbance, Wildtype KB 3-1, 0 (no Act D)
Counter-ions that a name gives are not always drawn.
ASSAY_READOUT: viability at 96 h, 1 µM (%)

>>> df
                                    molecule  display_unit  observed_measurement
 0  Brc1ccc2c(c1)/C(=C/CCN1CCCC1)c1ccccc1CO2             %                    85
 1      CN(C)CC/C=C1/c2ccccc2COc2c(Br)cccc21             %                    88
 2   Brc1ccc2c(c1)/C(=C\CN1CCCC1)c1ccccc1CO2             %                    84
 3  Brc1ccc2c(c1)/C(=C\CCN1CCCC1)c1ccccc1CO2             %                    87
 4  Fc1ccc2c(c1)/C(=C/CCN1CCCC1)c1ccccc1CO2 [(S)]             %                    77
 5  CN(C)CC/C=C1\c2ccccc2COc2ccc(Br)cc21 [(B), hydrochloride]             %                   100
 6  Brc1ccc2c(c1)/C(=C/CCN1CCCC1)c1cc(Br)ccc1OC2             %                    79
 7        CN(C)CCC=C1c2ccc(Br)cc2COc2ccccc21             %                   100
 8  CN(C)CC/C=C1/c2ccccc2COc2ccc(Br)cc21.Cl.Cl.Cl [(A), trihydrochloride]             %                    99
 9  CN(C)CC/C=C1/c2ccccc2COc2cc(Br)ccc21 [(E)]             %                    89
10  Brc1ccc2c(c1)/C(=C/CCN1CCCC1)c1ccccc1OC2             %                   100
11   Fc1ccc2c(c1)/C(=C\CCN1CCCC1)c1ccccc1CO2             %                    86
12      CN(C)CC/C=C1/c2cc(Br)ccc2COc2ccccc21             %                   100
13    CCN(CC)CC/C=C1/c2ccccc2COc2ccc(Br)cc21             %                    99
14         Brc1cccc2c1OCc1ccccc1C2=CCN1CCCC1             %                    89
15  Brc1ccc2c(c1)/C(=C\CCN1CCCC1)c1cc(Br)ccc1OC2 [(R)]             %                    78
16       CN(C)CC/C=C1/c2ccccc2COc2ccc(F)cc21             %                    92
17       CN(C)CC/C=C1\c2ccccc2COc2ccc(F)cc21             %                    65

----------
# PROCEDURE_TEXT: in vitro
# Type: cell-based, Chinese hamster
# TEST_CONTEXT: hamster, cho auxb1 cells
Counter-ions that a name gives are not always drawn.
Reported viability at 96 h, 1 µM values are given for each entry in this list.
ASSAY_READOUT: viability at 96 h, 1 µM (%)

>>> df
                                   compound            assay_readout  display_unit  observed_measurement
0  Brc1ccc2c(c1)/C(=C\CN1CCCC1)c1ccccc1CO2 [(F)]  viability at 96 h, 1 µM             %                   100
1  CN(C)CC/C=C1\c2ccccc2COc2ccc(F)cc21 [(P)]  viability at 96 h, 1 µM             %                   100
2  CN(C)CCC=C1c2ccccc2COc2ccccc21 [(W), doxepin, reference compound]  viability at 96 h, 1 µM             %                   100
3  CN(C)CC/C=C1/c2ccccc2COc2ccc(Br)cc21.Cl.Cl.Cl [(A), trihydrochloride]  viability at 96 h, 1 µM             %                   100
4  Brc1ccc2c(c1)/C(=C\CCN1CCCC1)c1cc(Br)ccc1OC2 [(R)]  viability at 96 h, 1 µM             %                    99
5  CCN(CC)CC/C=C1\c2ccccc2COc2ccc(Br)cc21 [(N)]  viability at 96 h, 1 µM             %                    86
6  CN(C)CC/C=C1\c2cc(Br)ccc2COc2ccc(Br)cc21 [(V)]  viability at 96 h, 1 µM             %                    86
7  CN(C)CC/C=C1/c2ccccc2COc2c(Br)cccc21 [(D)]  viability at 96 h, 1 µM             %                   100
8  CN(C)CC/C=C1\c2ccccc2COc2ccc(Br)cc21 [(B), hydrochloride]  viability at 96 h, 1 µM             %                    98
9  Fc1ccc2c(c1)/C(=C\CCN1CCCC1)c1ccccc1CO2 [(T)]  viability at 96 h, 1 µM             %                   100

----------
# PROCEDURE_TEXT: In vitro cytotoxicity / potentiation of Actinomycin D in human KB epidermoid carcinoma cells, drug resistant KB V-1 (MTT)
# Assay type: cell-based
# TEST_CONTEXT: human, kb v-1 cells, 1 μM potentiating agent alone, fraction of untreated cultures, read-out: Cytotoxicity, normalized absorbance, Drug Resistant KB V-1, 0 (no Act D)
Structures can show the parent of a compound that is named as a salt.
So basically, if viability at 96 h, 1 µM comes in under 90% it's label 1, and if it's 90% or more it's label 0.

                                    compound  class_name
 0  Brc1ccc2c(c1)/C(=C\CCN1CCCC1)c1cc(Br)ccc1OC2 [(R)]     label 1
 1      CN(C)CC/C=C1/c2ccccc2COc2c(Br)cccc21     label 1
 2  CN(C)CC/C=C1\c2ccccc2COc2ccc(Br)cc21 [(B), hydrochloride]     label 0
 3    CCN(CC)CC/C=C1/c2ccccc2COc2ccc(Br)cc21     label 0
 4       CN(C)CC/C=C1\c2ccccc2COc2ccc(F)cc21     label 1
 5  Brc1ccc2c(c1)/C(=C/CCN1CCCC1)c1ccccc1CO2     label 1
 6       CN(C)CC/C=C1/c2ccccc2COc2ccc(F)cc21     label 1
 7  Brc1ccc2c(c1)/C(=C\CCN1CCCC1)c1ccccc1CO2     label 1
 8   Brc1ccc2c(c1)/C(=C\CN1CCCC1)c1ccccc1CO2     label 1
 9  CN(C)CC/C=C1/c2ccccc2COc2ccc(Br)cc21.Cl.Cl.Cl [(A), trihydrochloride]     label 0
10  Brc1ccc2c(c1)/C(=C/CCN1CCCC1)c1cc(Br)ccc1OC2     label 1
11  Brc1ccc2c(c1)/C(=C/CCN1CCCC1)c1ccccc1OC2     label 0
12      CN(C)CC/C=C1/c2cc(Br)ccc2COc2ccccc21     label 0
13   Fc1ccc2c(c1)/C(=C\CCN1CCCC1)c1ccccc1CO2     label 0
14        CN(C)CCC=C1c2ccc(Br)cc2COc2ccccc21     label 0

----------
# PROCEDURE_TEXT: In vitro cytotoxicity / potentiation of Actinomycin D in Chinese hamster ovary cells, drug resistant C5S32 (MTT)
# Type: cell-based
# TEST_CONTEXT: hamster, cho c5s32 cells, 10 μM potentiating agent alone, fraction of untreated cultures (1.00), read-out: Cytotoxicity, normalized absorbance, Drug Resistant C5S32, 0 (no Act D)
So basically, if viability at 96 h, 10 µM comes in under 70% it's rule met, and if it's 70% or more it's rule not met.

                                    molecule    class_name
 0  Brc1ccc2c(c1)/C(=C/CCN1CCCC1)c1ccccc1CO2  rule not met
 1  Fc1ccc2c(c1)/C(=C/CCN1CCCC1)c1ccccc1CO2 [(S)]  rule not met
 2    CCN(CC)CC/C=C1/c2ccccc2COc2ccc(Br)cc21  rule not met
 3  Brc1ccc2c(c1)/C(=C\CCN1CCCC1)c1ccccc1CO2      rule met
 4  Brc1ccc2c(c1)/C(=C/CCN1CCCC1)c1cc(Br)ccc1OC2      rule met
 5  Brc1ccc2c(c1)/C(=C/CCN1CCCC1)c1ccccc1OC2  rule not met
 6  CN(C)CC/C=C1/c2cc(Br)ccc2COc2ccc(Br)cc21  rule not met
 7        CN(C)CCC=C1c2ccc(Br)cc2COc2ccccc21  rule not met
 8      CN(C)CC/C=C1/c2cc(Br)ccc2COc2ccccc21  rule not met
 9   Brc1ccc2c(c1)/C(=C\CN1CCCC1)c1ccccc1CO2      rule met
10   Fc1ccc2c(c1)/C(=C\CCN1CCCC1)c1ccccc1CO2  rule not met
